Documented normalized growth across a set of compounds
test_summary: chemical genetic growth profiling, strain panel (AID 1159580);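 further: tested at 20 µM; growth read once vehicle control cultures reached saturation at 30 °C; 1 = growth at the plate median or of vehicle wells; lower values mean less growth of the strain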
reported_conditions: S. cerevisiae deletion strains, growth OD, locus YER167W, strain BCK2, hits give low values
Hit rate of the full screen: of about 5,500 compounds, about 2,000 (36%) were called active. Not shown: some 18% with an inconclusive outcome. The list shows a part of the results.

compound	normalized growth
N[C@@H](Cc1cc(I)c(Oc2ccc(O)c(I)c2)c(I)c1)C(=O)O	1
COc1cc2c(cc1-c1cc3cc4ccoc4cc3oc1=O)OCO2	1.02
Clc1ccc2c(c1)C(N1CCNCC1)=Nc1ccccc1O2	0.994
O=C(O)CCCOc1ccc(Cl)cc1Cl	0.991
NCC(CC(=O)O)c1ccc(Cl)cc1 (stereo not given)	1.02
NC(Cc1ccc(F)cc1)C(=O)O (stereo not given)	1
N[C@H](Cc1ccccc1)C(=O)O	1.01
CN1CCN(C2=Nc3ccccc3Oc3ccc(Cl)cc32)CC1	0.988
CN(C)CCOC(=O)C(c1ccccc1)C1(O)CCCC1 (stereo not given)	1
COC(=O)CCCOc1ccc(Cl)cc1Cl	1
